FYI, the data here is from patent US20050130989A1.

- studyTarget: tubulin (Sus scrofa, UniProt P02550+P02554)
- Construct: Tubulin is purified from pig brain according to published methods
- Sequence (P02550 whole entry): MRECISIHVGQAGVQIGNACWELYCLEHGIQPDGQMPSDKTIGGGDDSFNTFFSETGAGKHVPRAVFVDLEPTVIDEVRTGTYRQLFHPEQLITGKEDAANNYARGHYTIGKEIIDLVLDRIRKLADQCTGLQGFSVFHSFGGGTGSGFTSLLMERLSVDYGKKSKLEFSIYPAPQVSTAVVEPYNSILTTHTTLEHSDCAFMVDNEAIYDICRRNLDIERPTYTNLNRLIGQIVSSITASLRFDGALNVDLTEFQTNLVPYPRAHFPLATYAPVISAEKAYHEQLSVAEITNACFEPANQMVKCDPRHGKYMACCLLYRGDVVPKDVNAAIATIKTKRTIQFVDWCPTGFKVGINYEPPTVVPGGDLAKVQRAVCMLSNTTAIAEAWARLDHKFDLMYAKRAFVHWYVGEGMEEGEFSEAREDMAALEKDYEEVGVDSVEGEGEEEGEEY
- Sequence (P02554 whole entry): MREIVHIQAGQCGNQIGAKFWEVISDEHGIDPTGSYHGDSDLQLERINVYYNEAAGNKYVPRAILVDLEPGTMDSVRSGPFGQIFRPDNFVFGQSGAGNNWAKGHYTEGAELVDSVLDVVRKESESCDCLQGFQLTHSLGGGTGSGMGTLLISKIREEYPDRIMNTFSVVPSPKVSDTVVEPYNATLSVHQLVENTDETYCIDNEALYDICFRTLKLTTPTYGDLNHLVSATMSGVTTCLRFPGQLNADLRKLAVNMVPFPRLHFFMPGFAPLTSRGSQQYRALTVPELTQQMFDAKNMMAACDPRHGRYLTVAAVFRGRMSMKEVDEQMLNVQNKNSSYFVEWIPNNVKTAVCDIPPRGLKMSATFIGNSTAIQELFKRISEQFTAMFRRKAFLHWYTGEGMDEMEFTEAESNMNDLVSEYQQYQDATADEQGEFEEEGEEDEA
- assayInfo: Evaluation of the inhibition of tubulin polymerization (turbidimetry)
- conditions: tubulin 10 μm (1 mg/ml), 37° C., turbidity at 350 nm; concentration that inhibits the rate of polymerization by 50%; read-out: Inhibition of tubulin polymerization IC 50 (μm)
pIC50: −log10 of the molar value.
measuredParameter: pIC50

These recorded examples may help you get a feel for the data.
COc1cc(OC)cc(N2CCN(C(=O)c3cc(N)nn3-c3ccccc3)CC2)c1	6.00
Cc1cc(C(=O)N2CCN(c3cccc(Cl)c3)CC2)n(-c2ccc([N+](=O)[O-])cc2)n1	4.69
COc1cc(OC)cc(N2CCN(C(=O)c3cc(N4CCC4)nn3-c3ccccc3)CC2)c1	6.05
C/C=C/c1cc(C(=O)N2CCN(c3cc(OC)cc(OC)c3)CC2)n(-c2ccccc2)n1	6.06
CCc1ccccc1N1CCN(C(=O)c2cc(C)nn2-c2ccccc2F)CC1	5.42
Cc1cc(C(=O)N2CCN(c3cccc(C#N)c3)CC2)n(-c2ccccc2)n1	6.05
Cc1cc(C(=O)N2CCN(c3cccc(Cl)c3)CC2)n(-c2cc(Cl)ccc2Cl)n1	5.77
COc1cc(OC)cc(N2CCN(C(=O)c3c(F)c(F)nn3-c3ccccc3)CC2)c1	5.54
Cc1cc(C(=O)N2CCN(c3ccc(C)c(C)c3)CC2)n(-c2cccc(Cl)c2)n1	5.70
COc1cccc(-n2nc(C)cc2C(=O)N2CCN(c3ccccc3SC)CC2)c1	5.38

I. Cc1cc(C(=O)N2CCN(c3cccc(C(N)=O)c3)CC2)n(-c2ccccc2)n1
II. COc1cc(OC)cc(N2CCN(C(=O)c3cc(-c4ccc[nH]4)nn3-c3ccccc3)CC2)c1
Prompt: Lab note: check whether I or II has the lower measured pIC50. The response must carry the label of the picked entry.
Response: II
